Kindly state pIC50 for each of the entries shown.
Tested on: HT-29
Experiment: Antiproliferative activity against human HT-29 cells after 48 hrs by MTT assay
Format: functional, cell-based
Setup Conditions: HT-29, 48 h
# pIC50 = -log10(concentration in molar units)

Reported pIC50 ( COc1ccc(Cn2cc(C(=O)NC3c4cc5c(cc4[C@@H](c4cc(OC)c(OC)c(OC)c4)[C@H]4C(=O)OC[C@H]34)OCO5)nn2)cc1 (single isomer, unassigned) ) = 4.76

Reported pIC50 ( COc1ccc(Cn2cc(C(=O)NC3c4cc5c(cc4[C@@H](c4cc(OC)c(OC)c(OC)c4)[C@H]4C(=O)OC[C@H]34)OCO5)nn2)cc1OC (single isomer, unassigned) ) = 4.87

Reported pIC50 ( COc1cc(OC)cc(-n2cc(C(=O)NC3c4cc5c(cc4[C@@H](c4cc(OC)c(OC)c(OC)c4)[C@H]4C(=O)OC[C@H]34)OCO5)nn2)c1 (single isomer, unassigned) ) = 4.71

Reported pIC50 ( COc1cc(Cn2cc(C(=O)NC3c4cc5c(cc4[C@@H](c4cc(OC)c(OC)c(OC)c4)[C@H]4C(=O)OC[C@H]34)OCO5)nn2)cc(OC)c1 (single isomer, unassigned) ) = 4.56

Reported pIC50 ( COc1cc([C@@H]2c3cc4c(cc3C(NC(=O)c3cn(-c5ccc(Cl)cc5)nn3)[C@H]3COC(=O)[C@H]23)OCO4)cc(OC)c1OC (single isomer, unassigned) ) = 5.39

Origin of the recorded values: ChEMBL document CHEMBL4251626
